B1: Ankyrin-3, residues 4094 to 4171; numbered along this chain, Q12955 (parent)
chain: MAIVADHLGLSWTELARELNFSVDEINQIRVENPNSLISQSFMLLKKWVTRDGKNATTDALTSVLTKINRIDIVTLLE

Variants of: B1
experiment: abundance fitness (aPCA) (normalised: wild type 0, dead -1); higher = more abundant; growth selection in yeast, the domain comes from the species named
particulars: Homo sapiens
Recorded abundance fitness by entry
Number only, please.

mutation: L19R
abundance fitness: -0.79

Q: Which measured abundance fitness value corresponds to "P34N" ?
A: -0.331

Q: Proceed to "T66P"
A: -0.535

Q: Follow-up item: "D72V"
A: -0.644

Q: Same question, "R17T" this time
A: -0.037

Q: Queued: "E18V"
A: -0.148
